assay: yeast display, Sf9 membrane polyspecificity reagent, FACS + sequencing; frameworks hold sequencing errors
result_type: polyreactivity (PSR sort gate)

QVQLVESGGGLVQAGGSLRLSCAASGSTFSRYAMGWYRQAPGKERDLVAAISWGGNTYYADSVKGRFTISRDNAKNTVYLQMNSLKPEDTAVYYCNRYSKLYNTMDYWGQGTQVTVSS high polyreactivity
QVQLVESGGGLVQAGGSLRLSCAASGSIFGSYAMGWYRQAPGKERELVAGITRRSGSTYYADSVKGRFTISRDNAKNTVYLQMNSLKPEDTAVYYCAADTWFGMDYWGQGTQVTVSS high polyreactivity

* * *

experiment: yeast display, Sf9 membrane polyspecificity reagent, FACS + sequencing; frameworks hold sequencing errors
result_type: polyreactivity (PSR sort gate)

QVQLVETGGGLVQAGGSHSLSCAAAGSTFSRYAMGWYRQAPGTETELVAGISWSGGNTYYADSVKGRVTISRDNAKNTVYLQMNSLKPEETAVYYCAADFLEYWVVYGWAEYEYWAQGTQVTVSS low polyreactivity
QVHLVESGGGLVQAGGSIRLSCAASGFIFGSYAMGWYRPAPGKERELVAVISASGGGTYYADSVKGRFTISRDNAKYTVYLQMNSLKPEDTAVYYCAAKGVRGFAGYGYWGQGTQVTVSS high polyreactivity
QVQLVESGGGLVQAGGSLRLSCAASGSTFYGYAKGWYRQAPGKERELVAAITRSGGSTYYADSVKGRFTISRDNAKNTVYLQMNSLKPEDTAVYYCAVATGPVSYRRYYWGQGTQVTVSS high polyreactivity
QVQLVESGGGLVQAGGSLRLSCAASGFTYTYAMGWYIQAPGKERELVAAISKSGGRTYYADSVKGRFTISRDNAKNTVYLQMNSLKPEDTAVYYCAADYSSTYDYWGQGTQVTVSS high polyreactivity
QVQLVESGGGLVQAGGSLRLSCAASGITFYGYAMGWYIQAPGKERELVASITSTGSTNYADSVKGRFTISRDNAKNTVYLQMNSLKPEDTAVYYCAARYREVYRSKRKLGYWGQGTQVTVSS high polyreactivity
QVQLVESGRGLVQAGGSLRLSCAASGLNFYDNMGWYRQAPGKERDLVAAISSSGGSTSYADSVKGRFTISRDNAKNTVYLQMNSLNPEDTAVYYCAAEWYPYPWGYGYWGQGTQVTVSS low polyreactivity
QDQLVESGGGLVQAGGSLRLSCAASGLTFDKYVMGWYRQAPGKERELVAAITKGGGSTYYADSVKGRFTISRDNAKNTVYLQMNSLKPEDTAVYYCAVTRPLRYWGQGTQVTVSS high polyreactivity
QVQLVESGGGLVQAGGSLRLSCAASGRIFAGYPMGWYRQAPGKERELVATFTRGGSTNYADSVKRPFTISRDNAKNSVYLQMNSLKPEDTAVYYCNAAIRRHGGYAHEYWGQGTQVTVSS low polyreactivity
QVQLVESGGGLVQAGGSLRLSCAASGSTFYYYAMGWYRQAPGKERELVAAISASGDSTYYADSVKGRFTISRDNAKNTVYLQMNSLKPEDTAVYYCAAQYYFYPHEFDYWGQGTQVTVSS low polyreactivity
QVQLQDSGGGLVQAGGSLRLSCAASGYIFGSGSMGWFRQAPGKERELVATINNGSSTYYADSVKGRFTISRDNAINTVYLQMNSLKPEDTAVYYCAAVRIRPLRYYYWGQGTQVTVSS high polyreactivity

Now for a further sequence.
Using the record for "QVQLVESGGGLVQAGGSLRLSCAASGSTFEYYAMGSYRQAPGKERELVATISIDGRTNYADSVKGRFTISRDNAKNTVYLQMNSLKPEDTAVYYCAARPYWRQRYDYWGQGTQVTVSS" , report its polyreactivity (PSR sort gate).
low polyreactivity
